Test system: NCI-H1341 complex spheroids, percent test/control
test description: Anticancer human tumor NCI-H1341 cell line growth inhibition [AhR];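 also: spheroids exposed to agents for seven days before readout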
condition set: second compound 0.1 µM; first compound 0.0949 µM; hits give low values
Classification by viability, T/C | ranges: lower range (below 30%), middle range (30% to below 70%), upper range (70% or more)

CCN(c1cc(-c2ccc(CN3CCOCC3)cc2)cc(C(=O)NCc2c(C)cc(C)[nH]c2=O)c1C)C1CCOCC1 + CC(CO)NC(=O)c1cc(-c2ccc(Cl)cc2)nn(-c2cnn(C)c2)c1=O ... upper range
O=C(C=Cn1cnc(-c2cc(C(F)(F)F)cc(C(F)(F)F)c2)n1)NNc1cnccn1 + Cc1cncc(-c2nc(NCCc3c[nH]c4ccccc34)c3ncn(C(C)C)c3n2)c1 ... middle range
CCc1c2c(nc3ccc(O)cc13)-c1cc3c(c(=O)n1C2)COC(=O)[C@]3(O)CC + Cc1cncc(-c2nc(NCCc3c[nH]c4ccccc34)c3ncn(C(C)C)c3n2)c1 ... lower range
CC(C)CC(NC(=O)C(Cc1ccccc1)NC(=O)c1cnccn1)B(O)O (configuration not stated) + CC(CO)NC(=O)c1cc(-c2ccc(Cl)cc2)nn(-c2cnn(C)c2)c1=O ... lower range
Nc1ncn(C2CC(O)C(CO)S2)c(=O)n1 (configuration not stated) + Cc1ccccc1N=Nc1ccc(NC(=O)c2ccnn2C)c(C)c1 ... middle range

Using the reported viability, T/C, which band applies to CC(C)CC(NC(=O)C(Cc1ccccc1)NC(=O)c1cnccn1)B(O)O (configuration not stated) + Cc1ccccc1N=Nc1ccc(NC(=O)c2ccnn2C)c(C)c1 ?
lower range

Pick a category. Item: CCc1c2c(nc3ccc(O)cc13)-c1cc3c(c(=O)n1C2)COC(=O)[C@]3(O)CC + Cc1ccccc1N=Nc1ccc(NC(=O)c2ccnn2C)c(C)c1
middle range

Assign a category based on measured viability, T/C for Nc1ncn(C2CC(O)C(CO)S2)c(=O)n1 (configuration not stated) + Cc1cncc(-c2nc(NCCc3c[nH]c4ccccc34)c3ncn(C(C)C)c3n2)c1 and give only the class name.
middle range

Which viability, T/C category applies to CCN(c1cc(-c2ccc(CN3CCOCC3)cc2)cc(C(=O)NCc2c(C)cc(C)[nH]c2=O)c1C)C1CCOCC1 + Cc1ccccc1N=Nc1ccc(NC(=O)c2ccnn2C)c(C)c1 here?
upper range

Any idea which band O=C(C=Cn1cnc(-c2cc(C(F)(F)F)cc(C(F)(F)F)c2)n1)NNc1cnccn1 + CC(CO)NC(=O)c1cc(-c2ccc(Cl)cc2)nn(-c2cnn(C)c2)c1=O is in?
lower range

Which class does CC(C)CC(NC(=O)C(Cc1ccccc1)NC(=O)c1cnccn1)B(O)O (configuration not stated) + Cc1cncc(-c2nc(NCCc3c[nH]c4ccccc34)c3ncn(C(C)C)c3n2)c1 fall in?
lower range

###

System: NCI-H1341 complex spheroids, percent test/control
test description: Anticancer human tumor NCI-H1341 cell line growth inhibition [AhR];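 also: spheroids exposed to agents for seven days before readout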
condition set: second compound 3.16 µM; first compound 3.16 µM; hits give low values
Kindly state viability, T/C for each of the entries shown.
Answers are plain numbers, in %.

// worked examples, viability, T/C included
NS(=O)(=O)OCC1CC(n2ccc3c(NC4CCc5ccccc54)ncnc32)CC1O (stereo not drawn) + Cc1cncc(-c2nc(NCCc3c[nH]c4ccccc34)c3ncn(C(C)C)c3n2)c1 ... 19.5
CC1(C)CCC(CN2CCN(c3ccc(C(=O)NS(=O)(=O)c4ccc(NCC5CCOCC5)c([N+](=O)[O-])c4)c(Oc4cnc5[nH]ccc5c4)c3)CC2)=C(c2ccc(Cl)cc2)C1 + CC(CO)NC(=O)c1cc(-c2ccc(Cl)cc2)nn(-c2cnn(C)c2)c1=O ... 36.5

For the next question, use this compound.
Short answer on NCI-H1341 complex spheroids, percent test/control for CC1COCCN1c1cc(C2(S(C)(=N)=O)CC2)nc(-c2ccnc3[nH]ccc23)n1 (stereo not drawn) + CC(CO)NC(=O)c1cc(-c2ccc(Cl)cc2)nn(-c2cnn(C)c2)c1=O , viability, T/C: 31.7
